- Species: Homo sapiens
- test-description: Selectivity ratio of pKi for human 5-HT1A receptor to pKi for human alpha1 adrenergic receptor
Mark true (1) only when Ratio pKi stays strictly below 20. Values equal to the cut-off are false (0).

[
  {
    "molecule": "COc1cccc(OC)c1OCCNCC1COC(c2ccccc2)(c2ccccc2)O1 (racemic)",
    "discrete-label": "true (1)"
  },
  {
    "molecule": "c1ccc(-c2ccccc2OCCNCC2COC(c3ccccc3)(c3ccccc3)O2)cc1 (racemic)",
    "discrete-label": "false (0)"
  },
  {
    "molecule": "COc1ccccc1CCCNCC1COC(c2ccccc2)(c2ccccc2)O1 (racemic)",
    "discrete-label": "true (1)"
  },
  {
    "molecule": "COc1ccccc1OCCNCC1CSC(c2ccccc2)(c2ccccc2)S1 (racemic)",
    "discrete-label": "false (0)"
  }
]

Kindly review the next molecule as well.
Does COc1cccc(OCCNCC2COC(c3ccccc3)(c3ccccc3)O2)c1 (racemic) have Ratio pKi strictly under 20?
false (0)
